Experiment: Human HepG2 cell viability assay in 384 well format
Format: toxicity, cell-based
Set-up: dose 125 nL, time 70.5 hour; concentration not given beside the values
Conditions: HepG2 cells, read-out: Inhibition
parameter_measured: cytotoxicity at 70.5 h (%)
Numbers only; they are read as %.

# annotated cases, reported cytotoxicity at 70.5 h shown
* O=C(NCC1(Sc2ccccc2)CC1)c1cc[nH]n1 | -1.79
* Cc1cccc2[nH]cc(CC(=O)N3CCC(Nc4cccnn4)CC3)c12 | 0.978
* CN(C)C(=O)N1C[C@@H]2CC[C@H](C1)N(Cc1nnc(-c3ccco3)o1)C2 | 10.9
* CC(=O)NCc1cncc(C2CCCN2C2CCOCC2)n1 (centres undefined) | -5.7
* COc1ccc2c(c1)OCC(Cc1cc(N3CCCC3)cnn1)C2 (centres undefined) | 1.96

Input line: Need cytotoxicity at 70.5 h, item CC(C)C(=O)N1CCCC12CCN(C(=O)c1ccno1)C2 (centres undefined)
Output line: -1.72

Input line: Need cytotoxicity at 70.5 h, item CN(Cc1nc2c(cnn2C)c(=O)[nH]1)Cc1ccccc1Cl
Output line: -4.36

Input line: Need cytotoxicity at 70.5 h, item Cc1ccc(CN2Cc3nccn3CC(Cn3cccn3)C2)s1 (centres undefined)
Output line: -4.41

====

Assay: Human HepG2 cell viability assay in 384 well format
Type: toxicity, cell-based
Parameters: dose 125 nL, time 70.5 hour; concentration not given beside the values
Details: HepG2 cells, read-out: Inhibition
parameter_measured: cytotoxicity at 70.5 h (%)
Numbers only; they are read as %.

# annotated cases, reported cytotoxicity at 70.5 h shown
* Cn1cc(C2CC(=O)NC23CCN(C(=O)C2CC=CC2)CC3)cn1 (configuration not stated) | 18.7
* CC(=O)c1cc(C(=O)N2CCN(C)Cc3ccccc32)n(C)c1 | -3
* NC(=O)CN1CCCC(Cc2ccc(N)nn2)C1 (configuration not stated) | 36.2
* CN1CCc2cc(C(CNS(=O)(=O)c3cccs3)N3CCCC3)ccc21 (configuration not stated) | 30.7
* CCCn1ccnc1SCCNS(=O)(=O)c1ccccc1 | -1.16
* CCCn1cnnc1CNC1CCCC1 | 5.01
* O=C(C1CCC1)N1CCC2(CC1)OCCO2 | -7.76
* CCC(=O)NCC(Cc1cccc(F)c1)n1cccc1 (configuration not stated) | -7.66
* NC(=O)CN1CCN(S(=O)(=O)N2CCCC2c2ccco2)CC1 (configuration not stated) | -3.32
* Cc1ncsc1CN1CC[C@H]2OCC[C@@]2(C(=O)NCC2CC2)C1 | -3.48

Input line: Need cytotoxicity at 70.5 h, item COc1ccc(C[C@H]2CN(Cc3ccoc3)CC[C@@H]2OC)cc1
Output line: -2.46

Input line: Need cytotoxicity at 70.5 h, item CN(Cc1ccn[nH]1)Cc1c[nH]nc1-c1ccc(F)cc1
Output line: -3.15

====

Test: Human HepG2 cell viability assay in 384 well format
Assay type: toxicity, cell-based
Design: dose 125 nL, time 70.5 hour; concentration not given beside the values
Settings: HepG2 cells, read-out: Inhibition
parameter_measured: cytotoxicity at 70.5 h (%)
Numbers only; they are read as %.

- CN(C)CC(=O)Nc1ccc(C(=O)N(C)CCc2cn[nH]c2)cc1: -1.37

Input line: Need cytotoxicity at 70.5 h, item CC(C)Oc1ncccc1CNC(=O)c1ccc(=O)[nH]n1
Output line: -3.21

Input line: Need cytotoxicity at 70.5 h, item CN1CCOC(CNCc2cccc(OCc3ccccn3)c2)C1 (stereo unspecified)
Output line: -3.38

Input line: Need cytotoxicity at 70.5 h, item O=c1[nH][nH]cc1-c1ccnc(NCCc2ccc(F)cc2)n1
Output line: -6.1

Input line: Need cytotoxicity at 70.5 h, item Cc1ccc(CN2Cc3nnn(C)c3C(COCCN(C)C)C2)s1 (stereo unspecified)
Output line: -4.13

Input line: Need cytotoxicity at 70.5 h, item COc1cccc(C(=O)N2CCCC2c2ncc3c(n2)CCN(C)C3)c1 (stereo unspecified)
Output line: -0.392

Input line: Need cytotoxicity at 70.5 h, item Cc1ccc2oc(C(=O)N3CCCC(n4nc(C)cc4C)C3)cc2n1 (stereo unspecified)
Output line: -2.12

Input line: Need cytotoxicity at 70.5 h, item COc1ccccc1-c1noc(CNc2ccc(F)cc2OCCO)n1
Output line: 9.78

Input line: Need cytotoxicity at 70.5 h, item Cc1nc(C(=O)N2CC[C@@]3(C[C@@H](NS(C)(=O)=O)CCO3)C2)cs1
Output line: -5.85

Input line: Need cytotoxicity at 70.5 h, item Cc1cc(CC(=O)N2CCN(CC(C)C)[C@@H]3CS(=O)(=O)C[C@@H]32)ccc1F
Output line: 7.77

Input line: Need cytotoxicity at 70.5 h, item Cc1cc(Cc2ccc(S(=O)(=O)N3CCCC3)cc2)c(=O)[nH]n1
Output line: -23.4

====

Assay: Human HepG2 cell viability assay in 384 well format
Assay type: toxicity, cell-based
Set-up: dose 125 nL, time 70.5 hour; concentration not given beside the values
Conditions: HepG2 cells, read-out: Inhibition
parameter_measured: cytotoxicity at 70.5 h (%)
Numbers only; they are read as %.

* Cc1cnn(CC2CCCCN2C(=O)c2ccc(CN(C)C)cc2)c1 (configuration not stated) | -8.06

Input line: Need cytotoxicity at 70.5 h, item N#Cc1ccc(CNC(=O)NC2CCN(c3ncccn3)CC2)cc1
Output line: -7.8

Input line: Need cytotoxicity at 70.5 h, item CCC(NC(=O)NCc1cccc(N(C)C)n1)c1nccs1 (configuration not stated)
Output line: 32.1

Input line: Need cytotoxicity at 70.5 h, item CNc1ncccc1C(=O)N1CCN(C)C2(CCN(C)CC2)C1
Output line: -7.09

Input line: Need cytotoxicity at 70.5 h, item COc1ccccc1OCc1nc(C(C)C)no1
Output line: 12.8

====

Assay: Human HepG2 cell viability assay in 384 well format
Type: toxicity, cell-based
Design: dose 125 nL, time 70.5 hour; concentration not given beside the values
Settings: HepG2 cells, read-out: Inhibition
parameter_measured: cytotoxicity at 70.5 h (%)
Numbers only; they are read as %.

• COc1ncccc1C1CC(=O)NCc2nc3ccccn3c21 (centres undefined) = 1.55
• O=C(c1ccco1)N1CCc2c(nc(-c3ccncc3)[nH]c2=O)C1 = 13
• CCN1CCN(CC(O)c2ccc(OC(F)(F)F)cc2)CC1 (centres undefined) = 28.9
• CC(c1nnc(-c2ccccc2)o1)N1CCC(Nc2ccccc2)CC1 (centres undefined) = 8.58
• CC(O)CN1CCC(CNCc2ccccc2OC(F)(F)F)CC1 (centres undefined) = 2.51

Please look at the following compound next.
Input line: Need cytotoxicity at 70.5 h, item NC1(C(=O)NCCC2CN(Cc3ccco3)CCO2)CCCC1 (centres undefined)
Output line: 29.8

====

Test: Human HepG2 cell viability assay in 384 well format
Assay type: toxicity, cell-based
Set-up: dose 125 nL, time 70.5 hour; concentration not given beside the values
Conditions: HepG2 cells, read-out: Inhibition
Recorded cytotoxicity at 70.5 h values for a group of molecules are listed next.
Numbers only; they are read as %.

• CCN(C)S(=O)(=O)c1c(F)cc(NC(C)=O)cc1F = -2.83
• Cc1nn(C)c(C)c1C1CCCN1C(=O)c1nccnc1N (centres undefined) = -8.84
• NC(=O)CN1CCCC1c1ccccc1Br (centres undefined) = 7.42
• Cn1ccnc1CN1CCCN(C(=O)c2ccc(Cl)o2)CC1 = -8.18
• COc1ccc(-c2nc(C#N)c(N(C)C)o2)cc1S(=O)(=O)N1CCCC1 = 14.1

Input line: Need cytotoxicity at 70.5 h, item O=C(NCCNc1ncccn1)C1CC(=O)N(C2CCCC2)C1 (centres undefined)
Output line: -6.36

Input line: Need cytotoxicity at 70.5 h, item O=C(c1cccc(Cl)c1)N1CC[C@H]2[C@H]1CCN2CC1CCOCC1
Output line: -8.99

Input line: Need cytotoxicity at 70.5 h, item Cc1nc(C)n(CC2CCCN(Cc3cccc(F)c3F)C2)n1 (centres undefined)
Output line: 2.26

Input line: Need cytotoxicity at 70.5 h, item O=C(CCOCc1ccccc1)NS(=O)(=O)N1CCOc2ccccc21
Output line: 11

Input line: Need cytotoxicity at 70.5 h, item Cc1cc(NC(=O)NCC(c2ccsc2)N(C)C)n(C)n1 (centres undefined)
Output line: -10.2

Input line: Need cytotoxicity at 70.5 h, item CC(Cc1ccco1)NC(=O)Nc1cnn(CC(N)=O)c1 (centres undefined)
Output line: -1.8

Input line: Need cytotoxicity at 70.5 h, item N#Cc1c(SCCN2CCCCC2)sc2c(O)cc(O)nc12
Output line: 17.9

Input line: Need cytotoxicity at 70.5 h, item COC[C@@]12CCO[C@@H]1CCN(C(=O)COc1ccccc1OC)C2
Output line: -11.3

Input line: Need cytotoxicity at 70.5 h, item Cc1cc2nc(-c3ccccc3)cc(NCC3CCCOC3)n2n1 (centres undefined)
Output line: 0.476

Input line: Need cytotoxicity at 70.5 h, item CCc1nc(C(=O)N2CCN(C)c3ccccc32)c[nH]1
Output line: -9.6

Input line: Need cytotoxicity at 70.5 h, item CN(C)CCOCC1CN(Cc2cccc(F)c2)Cc2nccn2C1 (centres undefined)
Output line: -4.81

Input line: Need cytotoxicity at 70.5 h, item Cc1cc(N(C)Cc2cc(C(C)(C)C)n[nH]2)nc(-c2cccnc2)n1
Output line: 41.6

Input line: Need cytotoxicity at 70.5 h, item O=C(c1cc(Cl)c2c(c1)OCCCO2)N(CC1CCOC1)C1CC1 (centres undefined)
Output line: -7.67

Input line: Need cytotoxicity at 70.5 h, item COc1ncccc1C(=O)N1CCCC(c2cc(C)[nH]n2)C1 (centres undefined)
Output line: -2.72

Input line: Need cytotoxicity at 70.5 h, item COCCC(=O)N1CC2(CCN(Cc3ccncc3)CC2)C1
Output line: -1.69

Input line: Need cytotoxicity at 70.5 h, item Cc1noc(C(C)N2CCN(CCn3ccccc3=O)CC2)n1 (centres undefined)
Output line: -1.66

Input line: Need cytotoxicity at 70.5 h, item C[C@@H]1CN(C(=O)Nc2cccc(OC(F)F)c2)CC(C(N)=O)O1 (some centres undefined)
Output line: -1.07

Input line: Need cytotoxicity at 70.5 h, item CC(=O)Nc1cccc(-c2ccccc2CCN)c1
Output line: -1.04

Input line: Need cytotoxicity at 70.5 h, item CC(C)n1[nH]c(=O)c2c1NC(=O)CSC2C1CCCCC1 (centres undefined)
Output line: 9.25
